# credit: the supplement of paper PMC10567573

protein stability index reference
B1: INTS3 (parent)
chain: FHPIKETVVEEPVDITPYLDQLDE

Variants of: B1
assay name: protein stability index of a GFP-peptide fusion (GPS, HEK-293T) (PSI 1-6); higher = more stable;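 also: lentivirally expressed fusions sorted by FACS into six bins by GFP to DsRed ratio, PSI derived from sequencing read proportions per bin multiplied by bin number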
conditions: c terminus: a fixed tail appended
Answer using only a numeral; do not append any unit.

Consider the reported protein stability index for these variants:
| variant spec | assay endpoint | recorded number |
| --- | --- | --- |
| F1K | protein stability index | 5.66 |
| K5P | protein stability index | 4.29 |
| F1T | protein stability index | 5.54 |
| E11P | protein stability index | 2.95 |
| Q21P | protein stability index | 3.15 |
| Q21K | protein stability index | 3.05 |
| V13Q | protein stability index | 3.25 |
| L22R | protein stability index | 3.71 |

Note protein stability index for the variant shown: V13A
3.61

Note protein stability index for the variant shown: I4V
3.82

Note protein stability index for the variant shown: I4N
3.85
